methodNotes: soluble on expression in E. coli; label from the status in PepcDB or PDB records
observationType: soluble on expression in E. coli

residueSequence	measurement
MGSDKIHHHHHHMGERTEDYRYVKTQHKIYTALIALLKKRAFDDITVRDLCQAAQVSRSGFYLHFVDKYDLVDSYGRDLVKMGMRLFYANRGNGLETLYTELLTLINEQGDLITLLLSRKGSVEIQNQIKNQLRQNAADNILPYYGIKNQSPVAQRYLIAMTTGAVLSILQEWLDSGKQESPAELVAVMQEQVMPTLQRSQFRL	not soluble
MGLIDVLKSFKSPSGREIRILLLGLDNAGKTTILKQLSSEDVQHVTPTKGFNVKTVAAMGDIRLNVWDIGGQRSIRPYWSNYYENIDTLIFVIDSNDKKRFDEMNIELGELLDEEKLRKVPVLIFANKQDLVTAASSEEITRKLNLDLLRDRTWHIQACSALKNEGINDGITWVASNLKPASKK	not soluble
MSLLGAAESTLEFYDLSHPWGHGAPAWPYFEDVQIERLHGMAKSRVLTQKITTVMHSGTHIDAPAHVVEGTPFLDEIPLSAFFGTGVVVSIPKGKWGMVTAEDLQNATPDIRPGDIVVVNTGWHHKYADSAEYYAYSPGFDKKAGEWFAAKGVKAVGTDTQALDHPLATAIAPHSPAEAQGGLLPWAVREYEAQTGRKVLDDFPDWEPCHRAILSQGIYGFENVGGDLDKVTGKRVTFAAFPWRWVGGDGCIVRLVAIVDPTGSYRIETGKAVEGHHHHHH	soluble
MSLNRAFRREQYARMVALSEPLIADYLGVRLPEPVSRIFVFDRREWLEANIVSFSQLFRPIEEMYEKNGGGRGALGVLMNDVSSKLLGVQIGGLLGYLAQRVLGQYDLSLLSAEATGGSLYFVEPNIARVQQQLGLSDEDFRLWITLHEMTHAFEFEAYPWVRTYFRELLEQNFALVSGQMLSSGNSLVDMLMRLLQGEGHHHHHH	not soluble
GPGSMLRRLFTRMAPRAKNHEELMKMLREGSQVGKMAASEESGVTFRDIRTVPIGESNEAKRRRLLYQSTYRGMVEMDIILGAFARQNIETLSAPQLEEYDAVLRHFDNDLYKWLVMDVEAPAEVAQIPVFQSLHSFVRDEREKLLKCAS	soluble
MNQKDTRKETLEFNKLQKRLRRNVGNAITDYNMIEEGDVVMACISGGKDSFAMLDILLNLQKAAPIKFEVVAVNLDQKQPGFPEHILPEYFETLNIPYYIVDKDTYSVVKEKVPEGKTTCGLCSRLRRGTLYSFAEKIGATKLALGHHMDDIVETMFLNMFHGSRLKAMPPKLRSDDGRNVVIRPLTYCREKDLIKYAEHKDFPIIPCNL	not soluble
LRRGHLKLQRDGQIIGHTPEEWEQIFREVWPEYEIEPNPLPGYAPFDIGMWLTVEAPAYAVWIDPEDGSEYWAG	not soluble
MSACAPVHRDPPAPASLRAMPGARWLSGVVLGGLSLGLMACGPKDIEGLRTADYLGGDQRSGVLTYRETPPMGGPYNPLWQTCAAYAQPVYNEYAVHSLARGAVWVTYRPGLDAAELDKLKALLAGQPAALLSPYPNLPAPVVMTAWNRQLSAQTADDPRLTRFLKEILPENSAPEKGSPCARGFGGTR	soluble
DNSVDLYFLMGLSGSAQGHLSNVQTLGSDLLKALNEISRSGRIGFGSIVNMTFQHILKLTADSSQFQRELRKQLVSGKLATPKGQLDAVVQVAICLGEIGWRNGTRFLVLVTDNDFHLAKDKTLGTRQNTSDGRCHLDDGMYRSRGEPDYQSVVQLASKLAENNIQPIFVVPSRMVKTYEKLTTFIPKLTIGELSDDSSNVAQLIRNAYSKL	soluble
MSLATTVKIATISPLSGSSSNLGLQIKNGAQLAVNEYKAEFAKLGMNLSLVAYDDQADPATGTAAARRVVADKNVLAVVGTLNTGVAIPASQALSTSKVAMVSPANTGTKVTDRGLKNMNRICARDDAQGPAGADFMVSTLKVKKVYVINDKTPYGEGLSGEAEKRLKAKGVQIVQSEGVAAEERDFTAIITKIQTLKPDAIYFGGLYGQIGPFAQQLRAKGVQVPLIGGDGMDSDELAKLAGAQGANNIYFTTVAPPLDSVPAAKTMAGNFKKAFGSDVQGYGIMGYDSAKVVLQGILDAAKKNGNKAPSRAQVETAIRSGTFGNLLTGTVQFDKNGDRKAGKMYVIAIKNAQRSTAGQVNVLREGHHHHHH	soluble
MNQIWLKVCAASDMQPGTIRRVNRVGAAPLAVYRVGDQFYATEDTCTHGIASLSEGTLDGDVIECPFHGGAFNVCTGMPASSPCTVPLGVFEVEVKEGEVYVAGEKKLEHHHHHH	soluble
MAHHHHHHMANDDPKEPQPAVLNPEVDQQDTSVNGDDGDAERDGGKDVPVFTPAGARVEVHPLVLLSLVDHYARVNAKVSQKRRVAGLLLGRHLSHPGGIQVLDINNSFAVPFDEDPQNPDVWFLDTNYAEEMFLMFRRVHPKVRIVGWYSAGPSCAVQPNDMLLHLLIADRFSLNPVYCIVNTDPNNKGVPVLAYTTVHGRDGARSLEFRNIPTHLGAEEAEEIGIEHLLRDLTDSTITTLSAQVQERELSLDHLGRVLQSIEEYLNDVAEGTMPISEDVLSVLQEVISLQPHIYHLKTSTDMVRHANDQAIAMFIAAIGRCVCTLYDVIANRRRIAREIQEVRARRERSLKEKLGNEQHKAKEAATEESRKEGAAKN	not soluble
MGSDKIHHHHHHMKHAYLIIAHNEFEILKRLIQALDDERNDIYIHFDRKLNHYPDCRTSYAKLTFLEERMDVRWGDISVVDAEFALFDEAYRRGEYSYYHLLSGVDMPLKTQNYIHRFFEKNAGKEFVGYYQGNISKEIDRKVCRWHLFPKSFKETEGGLAVTKRVLRAGCVRLQSLLGIRRNKDINFRKGTQWLSISNELVGYLLQQQKEVRRVYTHTFCADEIFVQTICWNSSFRDRVYDMHDEGHGCLRMIGWKDNQLEEWKEKDFEILMNSEALFARKFSIRHIEVVDQILNEISK	not soluble
